The entries below come with measured viability values attached.
Assay: P. berghei load reduction in hepatocytes – cell-based, HepG2, luciferase luminescence, HepG2 viability, primary screen (AID 624349);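 further: 100% = mean of DMSO negative control wells on the same plate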
Conditions: P. berghei liver stage in HepG2, luciferase luminescence, concentration not given here; measured here: HepG2 viability without parasites
Bridge positions count the residues as written; N and C are the ends. Square brackets hold non-standard residues; d marks the D form. Peptide text beside a SMILES is read from it. * marks the point of attachment. X2 = CCC(C)C(N)C1=NC(C(=O)*)CS1; dOrn = NCCC[C@@H](N)C(=O)O

{"molecule": "Cc1ccc(NC2=CC(=O)c3sc(C)nc3C2=O)cc1", "viability [%]": 105}
{"molecule": "C=C(c1ccc(C(=O)O)cc1)c1cc2c(cc1C)C(C)(C)CCC2(C)C", "viability [%]": 146}
{"molecule": "CCC(C)C(N)C1=NC(C(=O)N[C@@H](CC(C)C)C(=O)N[C@H](CCC(=O)O)C(=O)N[C@H](C(=O)N[C@H]2CCCCNC(=O)[C@H](CC(N)=O)NC(=O)[C@@H](CC(=O)O)NC(=O)[C@H](Cc3cnc[nH]3)NC(=O)[C@@H](Cc3ccccc3)NC(=O)[C@H]([C@@H](C)CC)NC(=O)[C@@H](CCCN)NC2=O)[C@@H](C)CC)CS1 (stereo partly drawn) (X2-L[dE]IK[dOrn]I[dF]H[dD]N; lactam 4-C)", "viability [%]": 103}
{"molecule": "c1cc(-c2cnn3cc(-c4ccc(OCCN5CCCCC5)cc4)cnc23)ccn1", "viability [%]": 103}
{"molecule": "CC(C)=CC[C@@H](O)C1=CC(=O)c2c(O)ccc(O)c2C1=O", "viability [%]": 99.5}
{"molecule": "O=C(NC(NC(=S)Nc1ccc(F)c([N+](=O)[O-])c1)C(Cl)(Cl)Cl)C(c1ccccc1)c1ccccc1 (stereo not drawn)", "viability [%]": 150}
{"molecule": "O=C1NC(=O)/C(=C/c2ccc3nccnc3c2)S1", "viability [%]": 76.4}
{"molecule": "COc1ccc2cc(C(C)C(=O)O)ccc2c1 (stereo not drawn)", "viability [%]": 47.4}
{"molecule": "Nc1ccn([C@@H]2O[C@H](CO)[C@@H](O)C2(F)F)c(=O)n1", "viability [%]": 190}
{"molecule": "COc1ccc(S(=O)(=O)N(CCO)c2ccccc2CN(C)C/C=C/c2ccc(Cl)cc2)cc1", "viability [%]": 64.7}
{"molecule": "CC[C@H](CC[C@@H](C)[C@H]1CC[C@H]2[C@@H]3CC=C4C[C@@H](O)CC[C@]4(C)[C@H]3CC[C@]12C)C(C)C", "viability [%]": 72.8}
{"molecule": "Nc1ccc(C(=O)Nc2cccc(-c3nc(N4CCOCC4)c4oc5ncccc5c4n3)c2)cn1", "viability [%]": 70.4}
{"molecule": "Cc1ccc([N+](=O)[O-])cc1S(=O)(=O)N(C)/N=C/c1cnc2ccc(Br)cn12", "viability [%]": 60.2}
{"molecule": "Nc1ccc(-c2cccc3c(=O)cc(N4CCOCC4)oc23)cc1", "viability [%]": 83.4}
{"molecule": "COc1cc2ncnc(Nc3cccc(Cl)c3)c2cc1OC", "viability [%]": 78.3}
{"molecule": "NC(=O)c1ccc2nc(-c3ccc(Oc4ccc(Cl)cc4)cc3)[nH]c2c1", "viability [%]": 91.3}
{"molecule": "O=C1NCCc2[nH]c(-c3ccncc3)cc21", "viability [%]": 61.5}
{"molecule": "Oc1cccc(-c2nc(N3CCOCC3)c3oc4ncccc4c3n2)c1", "viability [%]": 89.8}
